- system under test: Lyp-CCPGCC (lymphoid-specific protein tyrosine phosphatase, PTPN22, engineered insertion mutant) (Homo sapiens, UniProt Q9Y2R2, INS199CCPGCC)
- assay procedure: FlAsH fluorescence titration with purified Lyp-CCPGCC
observable: pKd
Remember the convention: pKd equals -log10 of concentration in molar.

Kindly note the recorded pKd for `O=C1OC2(c3ccccc31)c1ccc(O)c([As]3SCCS3)c1Oc1c2ccc(O)c1[As]1SCCS1` , which is 7.17
